Target: T1, Cyno Semaphorin3A-Sema Domain, TPP-19122 (cynomolgus (Macaca fascicularis), UniProt Q63548 21-569 (rat entry), limits assumed)
T1 construct: produced inhouse
T1 chain: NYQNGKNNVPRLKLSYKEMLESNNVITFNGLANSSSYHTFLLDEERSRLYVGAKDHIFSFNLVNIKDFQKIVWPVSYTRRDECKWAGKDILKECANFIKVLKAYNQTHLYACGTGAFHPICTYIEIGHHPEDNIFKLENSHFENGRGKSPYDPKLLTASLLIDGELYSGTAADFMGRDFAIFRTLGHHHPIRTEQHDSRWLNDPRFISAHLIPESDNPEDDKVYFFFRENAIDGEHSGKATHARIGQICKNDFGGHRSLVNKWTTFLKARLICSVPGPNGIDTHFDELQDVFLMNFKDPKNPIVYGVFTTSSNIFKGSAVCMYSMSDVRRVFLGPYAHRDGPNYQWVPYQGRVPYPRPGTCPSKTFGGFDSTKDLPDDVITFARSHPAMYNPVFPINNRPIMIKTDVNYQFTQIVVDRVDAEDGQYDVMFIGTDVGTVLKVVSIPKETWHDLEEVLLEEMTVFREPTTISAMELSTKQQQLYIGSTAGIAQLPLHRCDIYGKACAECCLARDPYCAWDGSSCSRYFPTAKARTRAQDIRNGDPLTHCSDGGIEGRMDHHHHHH
Assay: SPR, captured antibody, Sema3A domain analyte
pKd: −log10 of the molar value.

BINDER | pKd
TPP-30791 (antibody, human IgG1, kappa, V domains shown, prior art, WO 2020/225400; also called BI clone IV; Böhringer (BI) Clone IV) VH: EVQLVESGGGLLQLGGSLRLSCAASGFTFSSYYMSWVRQAPGKGLEWVSTIIKSGGYAYYPDSVKDRFTISRDNSKNTLNLQMNSLRAEDTAVYYCVKGGQGAMDYWGQGTTVTVSS VL: EIVLTQSPATLSLSPGERATLSCRASQSIGDYLHWYQQKPGQAPRLLIKYASQSISGIPARFSGSGSGTDFTLTISSLEPEDFAVYYCQQGYSFPYTFGGGTKLEIKR | 10.24
TPP-30789 (antibody, human IgG1, kappa, V domains shown, prior art, WO 2020/225400; also called BI clone II; Böhringer (BI) Clone II) VH: EVQLVESGGGLVQPGGSLRLSCAASGFPFSSYYMSWVRQAPGKGLEWVSTIIKSGGYAYYPDSVKDRFTISRDNSKNTLYLQMSSLRAEDTAVYYCVRGGQGAMDYWGQGTTVTVSS VL: EIVLTQSPATLSLSPGERATLSCRASQSIGDYLHWYQQKPGQAPRLLIKYASQSISGIPARFSGSGSGTDFTLTITSLEPEDFAVYYCQQGYSFPYTFGGGTKLEIKR | 10.10
TPP-18533 (antibody, human IgG1, lambda, V domains shown, IgG1) VH: EVQLLESGGGLVQPGGSLRLSCAASGFTFSSYEMNWVRQAPGKGLEWVSGISWNSGSIGYADSVKGRFTISRDNSKNTLYLQMNSLRAEDTAVYYCARSGYSSSWFDPDFDYWGQGTLVTVSS VL: QSVLTQPPSVSGAPGQRVTISCTGSSSNIGAGYDVHWYQQLPGTAPKLLIYGNSNRPSGVPDRFSGSKSGTSASLAITGLQAEDEADYYCSSYAGSNPYVVFGGGTKLTVLG | 8.19
